For each record, write down the corresponding soluble fraction (log2).
# Experimental Details: soluble fraction after stress (log2 fold change); higher = more stays soluble; pooled small domains, quantitative proteomics
# Condition Description: stress: pH 4
Form rule: numeric answer, no unit written next to it.

Lab note: measured soluble fraction (log2) of "HMALDSQEVGYNIEARGARPVVAQLGKAGQFSAVENSIRLGDDNWIALAPKLAGGGNAGFTAGIKSALS" was -0.293

Lab note: measured soluble fraction (log2) of "HMGSFDDAPDQLRQSILQLLAEGPLPPSAITERLNISREDATEALQQLLDEQRIFAVNGMLQLQPG" was -0.538

Lab note: measured soluble fraction (log2) of "HMEALNIEQKKVEIINVLLEKGKGKGRLSYKEISDQIDTVELDKDQMDELYETLMTNGIEIV" was -1.43

Lab note: measured soluble fraction (log2) of "HMESPLEQLTNRELQTLQMLGKGLSTKQIAAQLNLSVKTVETYRENLKRKLNLDSGSELIRYAIHRSNE" was -0.0124

Lab note: measured soluble fraction (log2) of "HMPGKVSDAGATAKDNRLFLEAVFWRVRTGSPWRDLPPAFGHWNSQFRRFRRWAKAGVFESLFNA" was 0.179

Lab note: measured soluble fraction (log2) of "HMEAKTSNPDYHARLGLTEGEGNDSALGVSVKAAEGGFGLLFGNKVGSDQLVRFANEDQVWLVNRALS" was 0.0693

Lab note: measured soluble fraction (log2) of "HMTEWSIHEVAQRSGVTTRTLRHYDAIGILSPTRTGANGYRYYGPEALVRLQRILLLRDLGLALSDIAE" was -1.66

Lab note: measured soluble fraction (log2) of "HMETWKLYKRAYKKYYARYMKGNMSEADFKAWATQAAADRDAAIEQITPEIDAALKAQIIEQLREKLNR" was -0.134

----------
# Experimental Details: soluble fraction after stress (log2 fold change); higher = more stays soluble; pooled small domains, quantitative proteomics
# Condition Description: stress: pH 4
Response key: 1 means soluble fraction (log2) >= -0.3; -1 means soluble fraction (log2) < -0.3.

Exam item: Record "HMLLPGEELRVMIIQEGKEYGQGVGYLDDGTMVVVEDGQRALNRTENVVVTKVLQTTAGRMIFAK" ; criterion: soluble fraction (log2) no lower than -0.3. Met?
Marked response: -1

Exam item: Record "HMNQRQKQLLSILEQQGDWMKGKALATLLAVSDRTIRSDIEKINREVEGSILSHPHKGYLLSVENRQIAET" ; criterion: soluble fraction (log2) no lower than -0.3. Met?
Marked response: 1

Exam item: Record "HMNVDALIGTKGIVVQPIRPFAVGQVKVNGQVWSAVGKTPETDIEQGREVKVHAIEGVKLVVTPT" ; criterion: soluble fraction (log2) no lower than -0.3. Met?
Marked response: 1

Exam item: Record "HMHMIDDYLARIGQLIRDARQHRGWTQVQLAEALGTSQSAVNRIERGNQNISLEMIARIGEALGSEIVSLG" ; criterion: soluble fraction (log2) no lower than -0.3. Met?
Marked response: -1

Exam item: Record "HMSQIANLLLSKNIKVNNQNIIYYETVLKYLPNNEKKEFFINAMKNNIYFTEEEIKNFGNIFN" ; criterion: soluble fraction (log2) no lower than -0.3. Met?
Marked response: -1

Exam item: Record "HMEDGEVTVPDLRGLTIKEAGTILEKLGLHLSPVGTGLAVRQDVAPGSKVARDTTITVEFEPPDIQVLR" ; criterion: soluble fraction (log2) no lower than -0.3. Met?
Marked response: 1

Exam item: Record "HMANHIAAIHVLKSKLQMSDSDYRVLITGLTQKASTKDMSDIERQRVRDHMQGLAERMGVVK" ; criterion: soluble fraction (log2) no lower than -0.3. Met?
Marked response: 1

Exam item: Record "HMNVEQQNQARENIKRLMEEQGLSQPKLSEKAGIAFGTLSRILRGKQDLTIQTAEKIADALGLSVYDLAE" ; criterion: soluble fraction (log2) no lower than -0.3. Met?
Marked response: 1

Exam item: Record "HMKLHFTINGVHYTWYKQFIRGIQIRELGNIPREDELYLDLPDGWKDDFIEDDEIVDLARPGVEHFISRAK" ; criterion: soluble fraction (log2) no lower than -0.3. Met?
Marked response: 1

Exam item: Record "HMGHEISLNNSRFLKLLNKTKISISNDDTRHYLNGIFLHLTEAHGRQFLTGVATDSHRLSSSSLEID" ; criterion: soluble fraction (log2) no lower than -0.3. Met?
Marked response: 1

Exam item: Record "HMLSLGIMEADMLKTGKHTISGISKATPEQRQKIDSDIEELKKKYPEKNITSKVENDNLIVESGVTAP" ; criterion: soluble fraction (log2) no lower than -0.3. Met?
Marked response: 1

Exam item: Record "HMEDADERRALEVLNQLLDLPEREQEAALAALSLPPALARRVRSLLSVQTRAADLFDTAPSP" ; criterion: soluble fraction (log2) no lower than -0.3. Met?
Marked response: -1

Exam item: Record "HMARYSMLEEQLLQLINKHGTMSTPKLVEATGAPRSTVTYQLRKLLESGTIERTQPARSPKQSYRIKS" ; criterion: soluble fraction (log2) no lower than -0.3. Met?
Marked response: 1

Exam item: Record "HMAVELPLETTLDIVRKYARNQEVDRRAERVEAVSAEALQTLAPRGTKLASEIVEQAKTQVLEELA" ; criterion: soluble fraction (log2) no lower than -0.3. Met?
Marked response: 1

Exam item: Record "HMSPLDSHLGRRIALRRQQLNTSAADLEKAISMVPGSVARFEAGRQSLNATQLFTLSRALDVPVLYFFEG" ; criterion: soluble fraction (log2) no lower than -0.3. Met?
Marked response: -1

Exam item: Record "HMYPIYDYISNMYLGKHLNAGMSLEEARGIMDEMLEKLLFDVPEEYHIDRDHFYEYLKKYYTERFSA" ; criterion: soluble fraction (log2) no lower than -0.3. Met?
Marked response: -1

Exam item: Record "HMYEVVPNMKGLSYEQAATALRTAGLEPELSDSIYDDKTRPGTVLEQSPRANTKVKPGRTVYLTVNAF" ; criterion: soluble fraction (log2) no lower than -0.3. Met?
Marked response: 1

Hey, just so you know, these numbers are from the domain aggregation screens of Martell et al. (2025).
